Where do the numbers come from? From the supplement of paper PMC11451515.

System: NOMO1
Test: cell viability relative to DMSO control; higher = less cytotoxic
Conditions: RPMI 5 mM glucose + 10% dialyzed FBS; 48 h; 5.12 µM
Record form. Attribute: cell viability. Fill in for each entry.
Note: unit % is implicit; provide only the numeric part.

In: Which measured cell viability value corresponds to CC(C)NCC(O)COc1ccc(COCCOC(C)C)cc1 (configuration not stated) ?
Out: 111

In: // cell viability lookup, key: C[C@H](NC(=O)/C(C#N)=C/c1cccc(Br)n1)c1ccccc1
Out: 38.8

In: Fill in the blank: the reported cell viability of ClC1=C(N\C2=N\CCN2)C3=NSN=C3C=C1 is ____.
Out: 161

In: Quick one: cell viability for CC(=O)Nc1ccc(OC[C@](C)(O)C(=O)Nc2ccc([N+](=O)[O-])c(C(F)(F)F)c2)cc1 ?
Out: 85.2

In: I am curious: what cell viability value has been reported for FC(F)(F)c1ccc(/C=C/c2nc(COc3ccc(CCCCn4ccnn4)cc3)co2)cc1 ?
Out: 27.8

In: I'd like to know its cell viability. The compound in question is COC1=CC2=NC=CC(=C2C=C1)OC3=CN=C(NC(=O)C/4=C(C)/N(CC(C)(C)O)N(C4=O)C5=CC=CC=C5)C=C3
Out: 77.2

In: Return reported cell viability; argument: CO[C@H]1/C=C/O[C@@]2(C)Oc3c(C)c(O)c4c(O)c(c5c(nc6cc(C)ccn65)c4c3C2=O)NC(=O)/C(C)=C\C=C\[C@H](C)[C@H](O)[C@@H](C)[C@@H](O)[C@@H](C)[C@H](OC(C)=O)[C@@H]1C
Out: 28.9

In: Consider the compound C\C1=C\C(=O)OC2=C1C=CC(=C2)O and give its measured cell viability.
Out: 109

In: Look up cell viability: CC\1=C(C(\N=C(/N1)C2=CC(=NC=C2)Cl)C3=C(F)C=C(Cl)C=C3)/C(=O)NC4=C(F)C=C5[NH]N=CC5=C4 (configuration not stated)
Out: 82.7

In: Record request: cell viability value, item CCCCCCCCCCCCCCCCCCCCCCO
Out: 123

In: Give the measured cell viability of Cc1ccccc1N1C(=O)c2cc([S+](N)(=O)[O-])c(Cl)cc2NC1C (configuration not stated) .
Out: 35.6

In: # input compound: COc1cccc2cc(-c3nc(C4CCC(C(=O)O)CC4)n4ncnc(N)c34)[nH]c12 (configuration not stated) ; wanted: its cell viability
Out: 41.7

In: Given CC1(C)O[C@@H]2C[C@H]3[C@@H]4CCC5=CC(=O)C=C[C@]5(C)[C@@]4(F)[C@@H](O)C[C@]3(C)[C@]2(C(=O)CO)O1 , state its recorded cell viability.
Out: 99.8

In: Given the entry COC1CCC(CC1)N(C(=O)C2CCC(C)CC2)C3=C(SC(=C3)\C4=C\CCCC4)C(O)=O (configuration not stated) , report its measured cell viability.
Out: 104

In: cell viability lookup needed for CC[C@H](CC#N)OC(=O)N[C@@H](C)c1cccc(NC(=O)Nc2ccc(-c3cnco3)c(OC)c2)c1 , thanks.
Out: 51.9

In: So what does the record say about cell viability for CC(C)OC(=O)OCOP(=O)(CO[C@H](C)Cn1cnc2c(N)ncnc21)OCOC(=O)OC(C)C.O=C(O)C=CC(=O)O ?
Out: 114

In: // cell viability lookup, key: CC(C)n1nc(-c2cc3cc(O)ccc3[nH]2)c2c(N)ncnc21
Out: 54.2
